- Tested on: Escherichia coli TOP10;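 note: peptides expressed intracellularly from a pBAD plasmid library in pooled LB shake-flask culture, induced with 0.3% L-arabinose, DNA abundance read by NGS, three biological replicates, DESeq2 with apeglm shrinkage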
- Assay Info: shrunken log2 fold change of peptide-encoding DNA abundance (4.5 h post-induction vs induction); higher = less antimicrobial activity (less host growth inhibition)
- Recorded Conditions: time post-induction: 4.5 h; library: site-saturation at positions 5, 18, 19, 20
Observed Property: shrunken log2 fold change
Could you respond with only the numeric value?

Give shrunken log2 fold change for the following sequence: `RRIRFRPPRLPRPRPRPAYRPRP`
-0.0676

Please report the measured shrunken log2 fold change for `RRIRERPPRLPRPRPRPGQQPRP`
-0.0809

Tell me its shrunken log2 fold change given `RRIRGRPPRLPRPRPRPVAKPRP` as the entry.
0.961

For `RRIRNRPPRLPRPRPRPKLLPRP` , write its shrunken log2 fold change.
0.127

Give the measured shrunken log2 fold change for `RRIRVRPPRLPRPRPRPCEKPRP`
-0.0491

Identify the reported shrunken log2 fold change for the following entry. `RRIRTRPPRLPRPRPRPSIMPRP`
-0.827

Answer with reported shrunken log2 fold change of `RRIRWRPPRLPRPRPRPQAMPRP`
0.179

Determine its reported shrunken log2 fold change: `RRIRQRPPRLPRPRPRPRAHPRP`
0.638

State its shrunken log2 fold change: `RRIRLRPPRLPRPRPRPPILPRP`
-0.287

Indicate its recorded shrunken log2 fold change; the sequence in question is `RRIRVRPPRLPRPRPRPISVPRP`
-0.131

Look up and state reported shrunken log2 fold change for `RRIRKRPPRLPRPRPRPLEQPRP`
0.0352

Provide measured shrunken log2 fold change value, entry: `RRIRMRPPRLPRPRPRPALLPRP`
0.727

Supply reported shrunken log2 fold change belonging to this sequence: `RRIRSRPPRLPRPRPRPPISPRP`
-0.0261

Return shrunken log2 fold change (reported value) for this sequence: `RRIRRRPPRLPRPRPRPFDVPRP`
-0.0126

Tell me its shrunken log2 fold change given `RRIRARPPRLPRPRPRPCKYPRP` as the entry.
-0.201

Provide one value: measured shrunken log2 fold change of `RRIRTRPPRLPRPRPRPVTKPRP`
0.0906

Supply measured shrunken log2 fold change of `RRIRLRPPRLPRPRPRPMCNPRP` in your reply.
0.107

Return value of shrunken log2 fold change for input `RRIRIRPPRLPRPRPRPDVFPRP` , no commentary.
-0.115

Provide shrunken log2 fold change value for the following sequence: `RRIRHRPPRLPRPRPRPHDSPRP`
-0.03

For `RRIRERPPRLPRPRPRPLWAPRP` , write its shrunken log2 fold change.
0.274

Annotate the sequence `RRIRHRPPRLPRPRPRPQHYPRP` with its measured shrunken log2 fold change.
-0.483

Supply recorded shrunken log2 fold change for `RRIRKRPPRLPRPRPRPCCPPRP` here.
-0.044

Give the measured shrunken log2 fold change for `RRIRKRPPRLPRPRPRPLHLPRP`
-0.198

Supply recorded shrunken log2 fold change for `RRIRDRPPRLPRPRPRPSFFPRP` here.
-0.168

Given the sequence `RRIRCRPPRLPRPRPRPAFAPRP` , write its reported shrunken log2 fold change.
0.134

Answer with the recorded shrunken log2 fold change for the sequence listed here: `RRIRSRPPRLPRPRPRPRDRPRP`
0.271

Provide one value: measured shrunken log2 fold change of `RRIRARPPRLPRPRPRPWWWPRP`
0.0143

Please report shrunken log2 fold change for the following sequence: `RRIRVRPPRLPRPRPRPLVNPRP`
-0.244

Item `RRIRGRPPRLPRPRPRPNSRPRP` : provide shrunken log2 fold change
0.107

Give shrunken log2 fold change for the following sequence: `RRIRTRPPRLPRPRPRPDYRPRP`
0.0112

# return recorded shrunken log2 fold change for entry `RRIRYRPPRLPRPRPRPSDAPRP`
-0.386

Read the entry `RRIRRRPPRLPRPRPRPHVYPRP` and write its reported shrunken log2 fold change.
-0.341
